# measurement_target: TRPA1 (Homo sapiens, UniProt O75762)
# Sequence (O75762 whole entry): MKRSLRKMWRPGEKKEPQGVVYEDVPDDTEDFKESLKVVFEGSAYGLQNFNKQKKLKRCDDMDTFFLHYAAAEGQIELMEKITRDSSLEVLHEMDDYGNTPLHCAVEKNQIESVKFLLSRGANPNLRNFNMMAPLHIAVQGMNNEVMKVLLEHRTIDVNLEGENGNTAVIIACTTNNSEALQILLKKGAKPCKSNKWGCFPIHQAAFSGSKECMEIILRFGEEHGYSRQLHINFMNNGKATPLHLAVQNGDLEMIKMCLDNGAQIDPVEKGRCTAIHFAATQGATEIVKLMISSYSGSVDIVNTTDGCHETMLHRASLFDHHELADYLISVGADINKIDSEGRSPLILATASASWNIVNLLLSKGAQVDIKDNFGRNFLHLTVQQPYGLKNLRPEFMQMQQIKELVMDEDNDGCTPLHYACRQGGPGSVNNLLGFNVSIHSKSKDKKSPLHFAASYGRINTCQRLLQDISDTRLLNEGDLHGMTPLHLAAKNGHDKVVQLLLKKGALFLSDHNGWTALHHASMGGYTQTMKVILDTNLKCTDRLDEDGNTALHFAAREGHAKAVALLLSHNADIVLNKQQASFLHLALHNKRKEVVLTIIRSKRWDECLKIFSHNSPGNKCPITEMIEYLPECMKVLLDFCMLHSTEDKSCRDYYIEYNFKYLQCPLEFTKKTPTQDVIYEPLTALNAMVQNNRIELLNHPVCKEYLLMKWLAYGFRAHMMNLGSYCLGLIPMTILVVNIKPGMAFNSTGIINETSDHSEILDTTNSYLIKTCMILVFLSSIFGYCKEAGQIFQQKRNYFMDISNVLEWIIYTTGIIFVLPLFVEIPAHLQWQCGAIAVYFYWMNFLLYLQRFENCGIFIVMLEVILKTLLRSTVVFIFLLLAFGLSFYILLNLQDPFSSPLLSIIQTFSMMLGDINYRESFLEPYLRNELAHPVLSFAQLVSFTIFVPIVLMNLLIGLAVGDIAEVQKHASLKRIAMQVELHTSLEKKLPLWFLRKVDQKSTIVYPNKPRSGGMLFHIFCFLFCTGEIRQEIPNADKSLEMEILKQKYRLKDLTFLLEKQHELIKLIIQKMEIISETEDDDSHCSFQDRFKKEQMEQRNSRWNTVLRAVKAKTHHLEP
# protocol_description: Determination of TRPA1 activity in vitro (TRPA1 antagonism in vitro)
# experimental_context: procedure of Wei et al., Anesthesiology 111 (2009) 147-154
Some molecules, each annotated with its measured IC50.
measured_quantity: IC50

C#CC(C)(C)NC(=O)c1cc(C(F)(F)F)cnc1NC(C)(C)C: 1100 nM
C#CC(C)(C)NC(=O)c1cccnc1NCc1cccc(F)c1: 5300 nM
C#CC(C)(C)NC(=O)c1cc(F)c(F)cc1NCCCC: 500 nM
C#CC(C)(CC)NC(=O)c1cc(F)ccc1NCCCC (centres unmarked): 300 nM
C#CC(C)(C)NC(=O)c1ccc(OC)cc1NCCC: 7000 nM
C#CC(C)(C)NC(=O)c1cc(C(F)(F)F)cnc1NCC(F)(F)F: 500 nM
C#CC(C)(CC)NC(=O)c1cccnc1Nc1ccc(F)c(C#N)c1 (centres unmarked): 500 nM
C#CC(C)(C)NC(=O)c1cccnc1Nc1ccccc1F: 4800 nM
C#CC(CC)(CC)NC(=O)c1cc(I)ccc1NCCOC: 500 nM
C#CC(C)(C)NC(=O)c1cccnc1Nc1cccc(F)c1: 1100 nM
C#CC(C)(C)NC(=O)c1ccc(F)cc1NC1CC1: 4800 nM
C#CC(C)(C)NC(=O)c1cc(Cl)cnc1NCC(F)F: 3800 nM
C#CC(C)(C)NC(=O)c1cc(F)cnc1NC1CCC1: 3000 nM
C#CC(C)(CC)NC(=O)c1cccnc1Nc1ccc(F)cc1 (centres unmarked): 200 nM
C#CC(C)(C)NC(=O)c1cc(F)cnc1NCCC(C)C: 1200 nM
C#CC(C)(C)NC(=O)c1cccnc1NC1CCC(F)(F)CC1: 3800 nM
C#CC(C)(C)NC(=O)c1cc(F)c(F)cc1NC(C)(C)C: 5400 nM
C#CC(C)(C)NC(=O)c1cc(Cl)cnc1NC(C)(C)C: 800 nM
C#CC(C)(C)NC(=O)c1cc(F)cnc1NCC(F)(F)C(F)(F)F: 400 nM
C#CC(C)(C)NC(=O)c1ccc(Cl)cc1NCCC: 800 nM

----------
# measurement_target: TRPA1 (Homo sapiens)
# protocol_description: Determination of TRPA1 activity in vitro (TRPA1 antagonism in vitro)
# experimental_context: procedure of Wei et al., Anesthesiology 111 (2009) 147-154
IC50 strictly less than 2000 nM = met. Otherwise not met.

C#CC(C)(C)NC(=O)c1ccncc1Nc1ccc(Cl)cc1: not met
C#CC(C)(CC)NC(=O)c1cc(F)cnc1NC1CC(F)(F)C1 (stereo not shown): met
C#CC(C)(CC)NC(=O)c1cccnc1Nc1ccc(F)c(F)c1 (stereo not shown): met
C#CC(C)(C)NC(=O)c1cccnc1Nc1cc(F)cc(F)c1: met
C#CC(C)(C)NC(=O)c1cccnc1NCCCc1ccccc1: not met
C#CC(C)(C)NC(=O)c1cc(F)c(F)cc1NC1CCC1: met
C#CC(C)(C)NC(=O)c1ccccc1NCC(F)(F)C(F)(F)F: met
C#CC(C)(C)NC(=O)c1cc(F)cnc1NC(C)(C)C: not met
C#CC(C)(C)NC(=O)c1cccc(F)c1NC1CCC1: not met
C#CC(C)(C)NC(=O)c1cc(Cl)cnc1NCC(C)(F)F: not met

----------
# measurement_target: UniProtKB O75762
# protocol_description: Determination of TRPA1 activity in vitro (TRPA1 antagonism in vitro)
# experimental_context: procedure of Wei et al., Anesthesiology 111 (2009) 147-154
measured_quantity: log10(IC50) (log10 of the value in µM)

C#CC(C)(CC)NC(=O)c1cc(F)cnc1NCC(F)F (stereo not drawn): 0.15
C#CC(C)(CC)NC(=O)c1cccnc1Nc1cc(OC)ccc1F (stereo not drawn): 0.15
C#CC(C)(C)NC(=O)c1cnc(C(F)(F)F)nc1NC(C)C: 1.08
C#CC(C)(C)NC(=O)c1cc(OCC)ccc1NCCC: 0.85
C#CC(C)(C)NC(=O)c1cc(F)c(N2CCOCC2)nc1NC(C)C: 0.63
C#CC(C)(C)NC(=O)c1cc(C(F)(F)F)ccc1NCCC(F)(F)F: -0.30
C#CC(C)(C)NC(=O)c1cccnc1Nc1ccc(Cl)c(OC)c1: 0.51
C#CC(C)(C)NC(=O)c1cc2c(cc1NCCC(F)(F)F)OCCO2: 1.07
C#CC(C)(CC)NC(=O)c1cccnc1Nc1ccccc1 (stereo not drawn): -0.40

----------
# measurement_target: UniProtKB O75762
# protocol_description: Determination of TRPA1 activity in vitro (TRPA1 antagonism in vitro)
# Format: cell-based
# experimental_context: procedure of Wei et al., Anesthesiology 111 (2009) 147-154
pIC50: −log10 of the molar value.
measured_quantity: pIC50

C#CC(C)(CC)NC(=O)c1cc(F)cnc1Nc1ccc(F)cc1 (centres unmarked) [Example 171]: 6.52
C#CC(C)(CC)NC(=O)c1cccnc1Nc1ccccc1F (centres unmarked) [Example 185]: 6.30
C#CC(CC)(CC)NC(=O)c1cc(F)c(F)cc1NCCOC [Example 45]: 5.70
C#CC(C)(C)NC(=O)c1ccc(C(F)(F)F)nc1NC(C)C [Example 106]: 5.89
C#CC(C)(C)NC(=O)c1cc(Cl)cnc1NCCOC(C)(C)C [Example 147]: 5.28
C#CC(C)(CC)NC(=O)c1cc(F)cnc1Nc1cccc(F)c1 (centres unmarked) [Example 176]: 6.52
C#CC(C)(C)NC(=O)c1cc(Cl)ccc1NCC(F)(F)F [Example 14]: 5.92
C#CC(C)(CC)NC(=O)c1cccnc1Nc1cc(F)cc(OC)c1 (centres unmarked) [Example 166]: 6.22
C#CC(C)(C)NC(=O)c1cc(F)cnc1NCCCOc1ccc(F)cc1 [Example 144]: 5.59
C#CC(C)(C)NC(=O)c1cc(F)cnc1NCCC(F)(F)F [Example 1]: 5.72
C#CC(C)(C)NC(=O)c1ccc(C(F)(F)F)nc1NCC1CCOCC1 [Example 116]: 5.80
C#CC(C)(C)NC(=O)c1cccc2c(C)c(C)[nH]c12 [Example 118]: 4.89
C#CC(C)(C)NC(=O)c1cc(SC)ccc1NCCC(F)(F)F [Example 78]: 6.10
C#CC(C)(C)NC(=O)c1ccc(OC)cc1NCCC(F)(F)F [Example 73]: 5.66
C#CC(CC)(CC)NC(=O)c1cccc2cc[nH]c12 [Example 119]: 4.73
C#CC(C)(C)NC(=O)c1cc(F)ccc1NCCCC [Example 49]: 5.96
C#CC(C)(C)NC(=O)c1ccc(C(F)(F)F)nc1NC(C)(C)C [Example 111]: 5.62
C#CC(C)(C)NC(=O)c1cc(OC)ccc1NCCCC(F)(F)F [Example 96]: 5.43
C#CC(C)(C)NC(=O)c1cc(C(F)(F)F)cnc1NCCC(F)(F)F [Example 2]: 6.52
C#CC(C)(C)NC(=O)c1cc(C)ccc1NCC(F)(F)F [Example 40]: 5.54

----------
# measurement_target: TRPA1 (Homo sapiens, UniProt O75762)
# protocol_description: Determination of TRPA1 activity in vitro (TRPA1 antagonism in vitro)
# experimental_context: procedure of Wei et al., Anesthesiology 111 (2009) 147-154
IC50 strictly less than 2 µM = MET. Otherwise NOT MET.

C#CC(C)(C)NC(=O)c1cc(Cl)cc(F)c1NC(C)C: NOT MET
C#CC(C)(C)NC(=O)c1cc2c(cc1NCC(C)C)OCO2: NOT MET
C#CC(C)(C)NC(=O)c1cccnc1NC(C)(C)C: NOT MET
C#CC(C)(C)NC(=O)c1cc(C(F)(F)F)cnc1NC1CC(F)(F)C1: MET
C#CC(C)(C)NC(=O)c1cc(Br)ccc1NCCC: MET
C#CC(C)(C)NC(=O)c1cc(OC)ccc1NCCC(F)(F)F: NOT MET
C#CC(CC)(CC)NC(=O)c1cccc2c1NCCC2: NOT MET
C#CC(C)(C)NC(=O)c1ccc(F)cc1NCCC(F)(F)F: MET
C#CC(C)(C)NC(=O)c1cccnc1Nc1ccccc1: NOT MET
C#CC(C)(C)NC(=O)c1cc(Cl)cnc1NCCC(F)(F)F: MET
C#CC(C)(C)NC(=O)c1cc(OC(F)(F)F)ccc1NCCC(F)(F)F: MET
C#CC(C)(C)NC(=O)c1ccc(F)cc1NC(C)C: NOT MET
C#CC(C)(C)NC(=O)c1cc(F)cnc1NCCOc1ccc(F)cc1: NOT MET
C#CC(C)(CCC)NC(=O)c1cc(F)c(F)cc1NCC(C)C (centres unmarked): MET
C#CC(C)(C)NC(=O)c1cc(F)c(F)cc1NCC: NOT MET
C#CC(CC)(CC)NC(=O)c1cc(Cl)ccc1NCCOC: MET
C#CC(C)(C)NC(=O)c1cc(Cl)cnc1NC1CC(F)(F)C1: MET
C#CC(C)(C)NC(=O)c1cc(F)ccc1NCCC(F)(F)F: MET
C#CC(CC)(CC)NC(=O)c1cc(F)cnc1NC1CC(F)(F)C1: MET
C#CC(C)(C)NC(=O)c1cc(C#N)ccc1NC1CCC1: NOT MET
C#CC(C)(C)NC(=O)c1cc(Cl)cnc1Nc1cccnc1: NOT MET
C#CC(C)(C)NC(=O)c1cccnc1Nc1ccc(C)c(F)c1: MET
C#CC(C)(C)NC(=O)c1cncnc1Nc1ccc(C(F)(F)F)cc1: MET
C#CC(C)(C)NC(=O)c1cc(F)cnc1NCC(C)C: NOT MET
C#CC(C)(CC)NC(=O)c1cccnc1Nc1cccc(OC)c1F (centres unmarked): NOT MET
C#CC(C)(C)NC(=O)c1cc(F)c(F)cc1NCCC(F)(F)F: MET
